System: HeLa Kyoto;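 also: HeLa Kyoto cells arrested at G1/S by double thymidine block, proteins quantified by TMT10plex mass spectrometry in mild NP-40 versus SDS extracts, three biological replicates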
Assay: solubility in G1/S (NP-40 vs SDS abundance) (log2 ratio); higher = more soluble
Conditions: cell cycle stage: G1/S
Item-by-item account of solubility in G1/S (log2)
Measured Quantity: solubility in G1/S (log2)

>>> test_result("MAAAAAAGEARRVLVYGGRGALGSRCVQAFRARNWWVASVDVVENEEASASIIVKMTDSFTEQADQVTAEVGKLLGEEKVDAILCVAGGWAGGNAKSKSLFKNCDLMWKQSIWTSTISSHLATKHLKEGGLLTLAGAKAALDGTPGMIGYGMAKGAVHQLCQSLAGKNSGMPPGAAAIAVLPVTLDTPMNRKSMPEADFSSWTPLEFLVETFHDWITGKNRPSSGSLIQVVTTEGRTELTPAYF [QDPR]")
0.236
>>> test_result("MSLYPSLEDLKVDKVIQAQTAFSANPANPAILSEASAPIPHDGNLYPRLYPELSQYMGLSLNEEEIRANVAVVSGAPLQGQLVARPSSINYMVAPVTGNDVGIRRAEIKQGIREVILCKDQDGKIGLRLKSIDNGIFVQLVQANSPASLVGLRFGDQVLQINGENCAGWSSDKAHKVLKQAFGEKITMTIRDRPFERTITMHKDSTGHVGFIFKNGKITSIVKDSSAARNGLLTEHNICEINGQNVIGLKDSQIADILSTSGTVVTITIMPAFIFEHIIKRMAPSIMKSLMDHTIPEV [SDCBP]")
0.00564
